Tested on: SW-620 colon
protocolText: NCI tumour cell line growth inhibition, 48 h
Returns one of satisfied or not satisfied; satisfied when TGI is >= 20 µM.

{"columns": ["molecule", "targetOrTestSystem", "categoryLabel"],
 "data": [
  ["COc1ccc2[nH]c3c4c(c5cc(C(C)(C)C)ccc5c3c2c1)C(=O)N(c1ccccc1)C4=O", "SW-620 colon", "satisfied"],
  ["CCCCCCNC(=O)c1cc(NCc2cc(OC)ccc2OC)ccc1O", "SW-620 colon", "satisfied"],
  ["O=C1C2CC3C(CC2C(=O)[N]1[Sn]([c]1ccccc1)([c]1ccccc1)[c]1ccccc1)C1(Cl)C(Cl)=C(Cl)C3(Cl)C1(Cl)Cl (stereo not given)", "SW-620 colon", "not satisfied"],
  ["C[C@]12CCC3c4ccc(OC(=O)c5ccccc5)cc4CC[C@H]3C1CC[C@@H]2OC(=O)C12OC1CCC2=O (stereo not given in full)", "SW-620 colon", "not satisfied"],
  ["N#CN=Nc1cc(Cl)c(N=NC#N)cc1Cl", "SW-620 colon", "satisfied"],
  ["O=C1C(=O)c2cc([N+](=O)[O-])ccc2-c2ccccc21", "SW-620 colon", "not satisfied"],
  ["CC(C)(C)CN1[C@@H]2CCCC[C@H]2N(CC(C)(C)C)P1(=O)Cc1ccccc1", "SW-620 colon", "satisfied"],
  ["CN1CCN(C(=O)c2ccc(NC(=O)Nc3ccc(N(C)c4ccnc(Nc5ccc(CS(C)(=O)=O)cc5)n4)cc3)cc2)CC1", "SW-620 colon", "satisfied"],
  ["Nn1c(CCCl)nc2c(Br)cc(Br)cc2c1=O", "SW-620 colon", "satisfied"],
  ["CCOC(=O)/C(=C/c1ccc(OC)c(OC)c1)C(=O)c1ccccc1", "SW-620 colon", "satisfied"],
  ["C[C@]12CC[C@@H]3c4ccc(OC(=O)c5ccccc5)cc4CC[C@H]3[C@@H]1CCC2OC(=O)c1cccc2c(=O)c3ccccc3[nH]c12 (stereo not given in full)", "SW-620 colon", "satisfied"],
  ["CCOC(=O)Cc1ccc(Nc2nc3cc(C(F)(F)F)ccc3nc2C(=O)OCC)cc1", "SW-620 colon", "satisfied"],
  ["COC(=O)[C@@H]1O[C@]12C(CO[Si](C)(C)C(C)(C)C)OC(n1ccc(=O)[nH]c1=O)C2O[Si](C)(C)C(C)(C)C (stereo not given in full)", "SW-620 colon", "satisfied"],
  ["COc1cccc(/C=C(/C(=O)O)c2cc(OC)c(OC)c(OC)c2)c1", "SW-620 colon", "satisfied"],
  ["NCC(=O)C(O)C(O)C(O)CO (stereo not given)", "SW-620 colon", "satisfied"],
  ["O=c1oc2ccc(Cl)cc2c(=O)n1-c1ccc(Cl)cc1F", "SW-620 colon", "not satisfied"],
  ["c1ccc(N/N=C2\\CC(c3ccccc3)Oc3ccccc32)cc1 (stereo not given)", "SW-620 colon", "satisfied"],
  ["COC1=CC(=O)c2ccc(C(C)C)cc2C1(C)C1=NC(C)(C)CO1 (stereo not given)", "SW-620 colon", "satisfied"],
  ["CCCCCCCC[N+](C)(C)Cc1ccc(C[N+](C)(C)CCCCCCCC)cc1", "SW-620 colon", "satisfied"]
]}
